# TARGET ENTITY: Replicative DNA helicase DnaB (Mycobacterium tuberculosis)
# Sequence (P9WMR3 1-399, added parts left off): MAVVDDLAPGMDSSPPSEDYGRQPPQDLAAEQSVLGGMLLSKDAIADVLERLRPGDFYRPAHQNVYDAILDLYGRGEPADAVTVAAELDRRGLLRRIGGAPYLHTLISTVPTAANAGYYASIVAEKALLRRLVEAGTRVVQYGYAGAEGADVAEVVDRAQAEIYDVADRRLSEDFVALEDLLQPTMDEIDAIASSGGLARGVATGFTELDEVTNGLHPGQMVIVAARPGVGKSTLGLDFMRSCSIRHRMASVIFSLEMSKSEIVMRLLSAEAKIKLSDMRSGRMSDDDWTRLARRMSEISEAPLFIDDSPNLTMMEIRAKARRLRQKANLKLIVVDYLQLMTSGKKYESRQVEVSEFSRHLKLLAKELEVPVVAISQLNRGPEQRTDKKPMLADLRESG
# PROTOCOL DESCRIPTION: DnaB intein splicing inhibitors, dose response, biochemical, cell-free fluorescence (AID 449749)
# Type: functional
The source made the active and inactive calls. Rule as the data show it: actives have a measured AC50 and inactives only a lower limit.
Could you please pick one outcome from this set? active, inactive

• CC1=NN(c2ccc(Cl)c(C(=O)O)c2)C(=O)/C1=C\c1ccc(-c2ccc(C(=O)O)cc2)o1 = active
• C=COC(=O)CSc1snc(SCC(=O)OC)c1C#N = inactive
• O=C(CCl)N1c2ccccc2OCC1c1ccccc1 (configuration not stated) = active
• COc1ccc(CNc2ccc3c[nH]nc3c2)c(OC)c1OC = active

Identify the outcome logged in this assay for the compound shown: O=C1CC/[N+](=C\c2ccc(Cl)c(Cl)c2)[N-]1
active

# fetch the recorded call for COC(=O)c1ccccc1-c1ccc(C(c2c(C)n[nH]c2O)c2c(C)n[nH]c2O)o1 here
active

So what was the verdict on CC(NC(=O)Cn1ncc(Cl)c(Cl)c1=O)C12CC3CC(CC(C3)C1)C2 (configuration not stated) in this test?
active

Source of measurements: ChEMBL document CHEMBL1201862
